biological target: human PAD4 (hPAD4) (Homo sapiens); experiment: RFMS human PAD4 functional assay (rapid-fire mass spectrum); conditions: 5 nM hPAD4 enzyme, 250 μM BAEE, 50 μM Calcium; 30 min preincubation, 90 min reaction at 37° C.
Sequence (Q9UM07 whole entry): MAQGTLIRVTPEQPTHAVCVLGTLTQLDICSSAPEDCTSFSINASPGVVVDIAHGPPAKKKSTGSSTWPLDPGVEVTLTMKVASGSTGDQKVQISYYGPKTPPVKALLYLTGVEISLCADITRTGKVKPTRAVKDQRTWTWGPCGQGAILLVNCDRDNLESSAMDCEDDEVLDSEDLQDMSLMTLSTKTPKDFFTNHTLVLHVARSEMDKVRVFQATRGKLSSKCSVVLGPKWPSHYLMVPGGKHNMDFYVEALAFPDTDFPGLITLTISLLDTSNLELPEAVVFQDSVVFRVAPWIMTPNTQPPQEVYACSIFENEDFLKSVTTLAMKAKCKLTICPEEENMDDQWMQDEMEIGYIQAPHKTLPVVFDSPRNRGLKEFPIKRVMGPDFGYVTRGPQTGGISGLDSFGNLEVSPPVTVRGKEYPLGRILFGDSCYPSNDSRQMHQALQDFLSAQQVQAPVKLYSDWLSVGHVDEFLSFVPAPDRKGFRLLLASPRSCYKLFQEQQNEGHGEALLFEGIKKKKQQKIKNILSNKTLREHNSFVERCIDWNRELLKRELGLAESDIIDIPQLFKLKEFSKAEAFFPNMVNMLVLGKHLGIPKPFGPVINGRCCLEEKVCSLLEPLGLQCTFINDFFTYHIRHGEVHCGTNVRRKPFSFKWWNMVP

Molecule	Result Units	IC50
COc1cc(C(=O)N2C[C@H]3CC[C@@H]2[C@@H]3N)cc2nc(-c3cc4ccccc4n3CC3CC3)n(CC3CN(C(=O)c4ccc(-c5ccc(O)cc5)cc4)C3)c12 [Example 149]	nM	19
COc1cc(C(=O)N2CC3CCC2[C@@H]3N)cc2nc(-c3cc4cccnc4n3CC3CC3)n(Cc3cnn(-c4cccnc4O)c3)c12 (stereo partly drawn) [Example 374]	nM	35
COc1cc(C(=O)N2C[C@H]3CC[C@@H]2[C@@H]3N)cc2nc(-c3cc4ccc(Cl)cc4n3CC3CC3)n(CC3CN(c4ccnc(C)n4)C3)c12 [Example 9]	nM	21
COc1cc(C(=O)N2C[C@H]3CC[C@@H]2[C@@H]3N)cc2nc(-c3cc4ccccc4n3CC3CC3)n(CC3CN(C(=O)c4ccccc4C#N)C3)c12 [Example 159]	nM	24
COc1ccc(-n2cc(Cn3c(-c4cc5ccccc5n4CC4CC4)nc4cc(C(=O)N5CC6CCC5[C@@H]6N)cc(OC)c43)cn2)cn1 (stereo partly drawn) [Example 354]	nM	22
C#CC(=O)N1CC(Cn2c(-c3cc4cccnc4n3CC3CC3)nc3cc(C(=O)N4CC5CCC4[C@@H]5N)cc(OC)c32)C1 (stereo partly drawn) [Example 133]	nM	165
